Biological target: T1, human SIRPα v2 on CHOK1 cells (human, UniProt P78324 31-504)
T1 construct: whole, on cells; also called CHOK1-hSIRPα v2; cell surface human SIRPα v2
T1 sequence (P78324 other isoform, or with tags, fused parts or gaps limits assumed): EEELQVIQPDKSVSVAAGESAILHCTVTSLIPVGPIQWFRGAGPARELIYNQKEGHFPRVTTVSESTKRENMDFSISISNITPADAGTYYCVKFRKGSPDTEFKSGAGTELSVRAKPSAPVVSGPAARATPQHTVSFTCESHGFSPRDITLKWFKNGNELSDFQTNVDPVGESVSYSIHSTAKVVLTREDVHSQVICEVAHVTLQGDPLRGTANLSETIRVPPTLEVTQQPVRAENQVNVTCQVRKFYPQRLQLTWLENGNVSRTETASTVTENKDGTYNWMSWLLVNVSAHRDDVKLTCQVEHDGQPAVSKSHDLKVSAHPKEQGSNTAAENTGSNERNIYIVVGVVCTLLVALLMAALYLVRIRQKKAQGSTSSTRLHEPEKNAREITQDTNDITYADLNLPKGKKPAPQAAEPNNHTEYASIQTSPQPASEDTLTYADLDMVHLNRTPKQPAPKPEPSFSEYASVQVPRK
Experiment: FACS, CHOK1 cells stably expressing human SIRPα v2
Kindly state TOP MFI for each of the entries shown.
Return type: number; implicit unit MFI.

Asked: Need TOP MFI of Humanized anti-SIRPα antibody hu025.059 (antibody, V domains shown, Humanized from C25) VH: EVQLVQSGAEVKKPGATVKISCKASGFNIKDYYMHWVQQAPGKGLEWIGRIDPEDAETKYAPKFQGRVTITADTSTNTAYMELSSLRSEDTAVYYCDRGLAYWGQGTLVTVSS VL: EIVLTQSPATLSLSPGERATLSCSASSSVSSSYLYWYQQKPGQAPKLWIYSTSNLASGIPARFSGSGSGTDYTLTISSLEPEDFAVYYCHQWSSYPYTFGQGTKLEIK , thanks.
Given back: 47300

Asked: Need TOP MFI of Anti-SIRPα antibody C25 (antibody, V domains shown, Mouse variable regions; also called 025c; 025) VH: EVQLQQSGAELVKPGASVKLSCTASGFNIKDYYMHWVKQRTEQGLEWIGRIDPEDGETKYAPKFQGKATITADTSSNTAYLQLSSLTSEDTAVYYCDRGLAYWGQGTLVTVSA VL: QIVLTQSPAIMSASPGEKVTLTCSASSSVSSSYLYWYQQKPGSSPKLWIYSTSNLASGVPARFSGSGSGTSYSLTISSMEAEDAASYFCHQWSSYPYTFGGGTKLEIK , thanks.
Given back: 53000

Asked: Need TOP MFI of Humanized anti-SIRPα antibody hu025.021 (antibody, V domains shown, Humanized from C25) VH: EVQLVQSGAEVKKPGATVKISCKVSGFNIKDYYMHWVQQAPGKGLEWIGRIDPEDAETKYAPKFQGRVTITADTSTNTAYMELSSLRSEDTAVYYCDRGLAYWGQGTLVTVSS VL: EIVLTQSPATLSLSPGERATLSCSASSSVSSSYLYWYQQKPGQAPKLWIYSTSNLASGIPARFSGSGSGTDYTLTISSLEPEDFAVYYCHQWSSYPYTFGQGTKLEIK , thanks.
Given back: 46400
